Entries annotated with measured binding signal
Target: T1, UNK ZnF1-3 (human, UniProt Q9C0B0 31-174)
T1 sequence: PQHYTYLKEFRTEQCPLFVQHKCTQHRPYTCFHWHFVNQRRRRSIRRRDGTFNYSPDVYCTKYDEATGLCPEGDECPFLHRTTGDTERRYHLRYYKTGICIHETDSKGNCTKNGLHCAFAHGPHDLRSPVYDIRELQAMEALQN
Test: nsRBNS (natural sequence RNA bind-n-seq); RBNS binding buffer (assumed for nsRBNS): 25 mM Tris pH 7.5, 150 mM KCl, 3 mM MgCl2, 0.01% Triton X-100, 500 ug/ml BSA, 20 U/ml SUPERase-In, 4 C; UNK is unkempt and MSI1 is Musashi-1; names of the RNAs are library labels; protein concentration not given here; high values mean tight binding
The full ranking holds about 24,000 sequences; the median of “enrichment r” is about 0.99, and the highest 2% start at about 3.7. Shown is part of a subset that was picked to be rich in the highest values.
Enter the number, and then the unit.

Some binders with known binding signal results, for comparison:
binder	binding signal
chr4:57314706:57314707:+_ENSG00000128050_ENST00000264221|hu_mus|hu_hu_hu_mus_True|48_88 (ssRNA) RNA: GGGAGUUCUACAGUCCGACGAUCCAGAAUUUCAAAAAUAGCUUGUGUAGCAUGACUCAUGAUGUCCACUUCAGUCUGCCCUAUAACAAGUCCAGCAAAACAGAAUUUUGCAGCAAUGAGUUGCUCCUCAGACCACUGUGGAUCCAACAGAGGAUUGAGCAUCA	0.922 enrichment R
132634964_132635084_86_5pUTR_ENSMUSG00000030750_ENSMUST00000033006|mouse|control|control (ssRNA) RNA: GGGAGUUCUACAGUCCGACGAUCCCCGCCUCCAGGGCGGAGAGAUCGCCAGACUGGAGCUCCUACUGGUGGGCUACGCGCAUUCUCCCGCUCACCAGCGGAGUACUUCCGUUUUCCCCGCCCGCUCUGUUGCUAUGGCGCCUUCAACAGAGGAUUGAGCAUCA	0.567 enrichment R
154963464_154963584_1656_3pUTR_ENSMUSG00000042751_ENSMUST00000043313|mouse|control|control (ssRNA) RNA: GGGAGUUCUACAGUCCGACGAUCCUGGUUGGCAGAGAACCCACUCAAUGCUACUGGUCAGACACACAGCAUCAAGACCACGAUCAUCUGAAACCAGGGACUCAAAUUCUGAGAAACCCUACUCUUCCCAGACUUAUGUACCAGCAACAGAGGAUUGAGCAUCA	1.29 enrichment R
96412582_96412966_892_CDS_ENSG00000111144_ENST00000228740|human|control|control (ssRNA) RNA: GGGAGUUCUACAGUCCGACGAUCGCCACCAUAAGGGAAGGAUGGUGGCAGGACCAAUAGGUCAUACUGUCCCCAUACAUACGGUCCUCCCAGAUCUUCUGCUAUUUUAAGCAUAGAUUCAGUCUCAGAAAACUCAUAAGCAGACAACAGAGGAUUGAGCAUCA	0.524 enrichment R
chr9:15470827:15470828:-_ENSG00000164985_ENST00000397519|hu_hu|motif|central (ssRNA) RNA: GGGAGUUCUACAGUCCGACGAUCGAAUGUCAAGAGAAGGGCCCCAUUCUCAGGGAUAUAACUGCUAUUCCAGUUUAAUAACGGGCUUCAAAACAAAAUGAAUUUUUAUAUUUUCUAGAUGAAUAAUGUACAACCACCAUCUUCCAACAGAGGAUUGAGCAUCA	1.6 enrichment R

Provide one value: measured binding signal of chr5:137088537:137088538:-_ENSG00000177733_ENST00000314940|hu_mus|FALSE|FALSE (ssRNA) RNA: GGGAGUUCUACAGUCCGACGAUCUCCCGCCCGCCCACCCGCCCCCCCAAAAAACACAAAUUAAAACAAGACAUUUUUUUGCUAGUAUAAAAACGACCAAGGUCCAAGUAAUAAUAAAAAAAUAGAGUCCAUCAAUGACUGUAACAACAGAGGAUUGAGCAUCA 9.05 enrichment R

Provide one value: measured binding signal of chr5:137088537:137088538:-_ENSG00000177733_ENST00000314940|hu_mus|motif|central (ssRNA) RNA: GGGAGUUCUACAGUCCGACGAUCUCCCGCCCGCCCACCCGCCCCCCCAAAAAACACAAAUUAAAACAAGACAUUUUUUUGCGGGUAUAAAAACGACCAAGGUCCAAGUAAUAAUAAAAAAAUAGAGUCCAUCAAUGACUGUAACAACAGAGGAUUGAGCAUCA 3.51 enrichment R

Provide one value: measured binding signal of chr3:54535082:54535083:-_ENSMUSG00000027752_ENSMUST00000029316|mus_mus|FALSE|FALSE (ssRNA) RNA: GGGAGUUCUACAGUCCGACGAUCGCAGGCAUCCAAAAUGUUCCCAUCGUAGUCUAGACAAAUGAGGUCACAGUAUAGAACCCAAGCAAGCUUGCCUGGAGAAAUGCAUAAAUCCUCUUUCUUAAUCACCUGUGAGUUGUCAACCAACAGAGGAUUGAGCAUCA 1.32 enrichment R

Provide one value: measured binding signal of chr2:204281756:204281757:+_ENSG00000138443_ENST00000261017|hu_hu|motif|central (ssRNA) RNA: GGGAGUUCUACAGUCCGACGAUCCUUUUCCAAGUAAGAACGUGGAGCCCACGGUGGGUCCUCUUCAGCAUAAGGAUCACGGUACUCAACCACAGCAGCUUCCUCCUCUUCGUAAUCUUCUGGAGGAGGAGGAGGUGGGGGAGACAACAGAGGAUUGAGCAUCA 0.684 enrichment R

Provide one value: measured binding signal of chr5:137088537:137088538:-_ENSG00000177733_ENST00000314940|hu_hu|FALSE|FALSE (ssRNA) RNA: GGGAGUUCUACAGUCCGACGAUCCAGCAAGUUCACUCCCUCCCUCCCCCCAAAAAACACAAAUUAAAACAAGACAUUUUGCUAGUAUAAAAACGACCAAGGUCCAAGUAAUAAUAAAAAAAUAGAGUCCAUCAAUGACUGUAACAACAGAGGAUUGAGCAUCA 5.73 enrichment R

Provide one value: measured binding signal of chr5:137088537:137088538:-_ENSG00000177733_ENST00000314940|hu_hu|motif|central (ssRNA) RNA: GGGAGUUCUACAGUCCGACGAUCCAGCAAGUUCACUCCCUCCCUCCCCCCAAAAAACACAAAUUAAAACAAGACAUUUUGCGGGUAUAAAAACGACCAAGGUCCAAGUAAUAAUAAAAAAAUAGAGUCCAUCAAUGACUGUAACAACAGAGGAUUGAGCAUCA 6.14 enrichment R

Provide one value: measured binding signal of chr1:59924863:59924864:+_ENSMUSG00000067336_ENSMUST00000087435|mus_hu|FALSE|FALSE (ssRNA) RNA: GGGAGUUCUACAGUCCGACGAUCGCUGCCAAAUUUUAGCCGGGGCUCUUUUGUUGAAUUUUUGGUGUUCAAAGGCAAACUAGUAGGUCUCUUGGGAAGGUUCUGCUGCUUGGGGAGAGGAUAGAUCUGAGUAGGCAGAACAUCCAACAGAGGAUUGAGCAUCA 1.44 enrichment R

Provide one value: measured binding signal of chr2:24917620:24917621:+_ENSMUSG00000006476_ENSMUST00000102931|mus_mus|motif|central (ssRNA) RNA: GGGAGUUCUACAGUCCGACGAUCAGUAAUGCUGCUUCCCUUCAAAUUGUUUCAGGGGUGUAAAAAAAUUGCACUUAUUUCGGUGAACCCCAUGGAGGGGAUCCCCAAUGCUGCUGCCUCCAGGCGAGGCAUGACAGGUCAAUGCAACAGAGGAUUGAGCAUCA 1.02 enrichment R
